Molecular target: DAPK1 (human)
Experiment: radiometric filter-binding kinase assay
Settings: compound 10.0 µM
REPORTED ENDPOINT: residual activity (%)
Give just the numeric value; % need not be written.

A selection of reference data follows.
COMPOUND | REPORTED ENDPOINT | UNITS LABEL | VALUE OBSERVED
NC(=O)c1cc(-c2ccnc(NC3CCCCC3)c2)nc(N2CCNCC2)c1 | residual activity | % | 40
Cc1ccc(-c2ccc3c(ccc4sc5c(c43)NC[C@@H](C)NC5=O)n2)cn1 | residual activity | % | 15
Oc1ccc(/C=C/c2cc(O)cc(O)c2)cc1 | residual activity | % | 62
CC1=C(CO)C(=O)O[C@@H]([C@@H](C)[C@H]2CC[C@H]3[C@@H]4C[C@H]5O[C@]56[C@@H](O)C=CC(=O)[C@]6(C)C4CC[C@]23C)C1 (stereo not given in full) | residual activity | % | 108

Identify residual activity associated with the compound `Cc1ccc(Sc2cnc(Nc3cccc(Br)n3)s2)cc1C(=O)N1CCN(C(=O)CN)CC1` 63

Ref: the kinase profiling compilation of Christmann-Franck et al. (2016)
